Cited source for all entries: patent US20250277029A1

target: T1, empty-ND (nanodisc without CB1); experiment: flow cytometry, yeast-displayed IgG, binding/display ratio
T1 construct: its only protein is the nanodisc scaffold; also called Empty Nanodisc
QUANTITY_KIND: 50.0 nM Empty Nanodisc binding (relative to 10D10N35Y) (fold)
Note: unit fold is implicit; provide only the numeric part.

1) LIBC527906-1 (antibody, V domains shown, also called LIBC527906-1 + VK1 germline fix(es)) VH: QVQLQESGPGLVKPSQTLSLTCTVSGGSIRRGGDYWGWIRQHPGKGLEWIGHIYQTGSTNYNPNFKDRATISVDTYKNQFSLKLSSVTAADTAVYYCARDYDILTGYSYYYYGMDVWGQGTTVTVSS VL: DIQLTQSPSTLSASVGDRVTITCRASQSISNYLNWYQQKPGKAPKLLIYAASSLHSGVPSRFSGSGSGTDFTLTISSLQPEDFASYYCQQYQSYPLTFGQGTKVEIKR    0.51
2) LIBC528169-1 (antibody, V domains shown, also called LIBC528169-1 + VK1 germline fix(es)) VH: QVQLQESGPGLVKPSQTLSLTCTVSGGSIRRGGDYWSWIRQHPGKGLEWIGHIYQSGSTKYNPSFEDRATISVNTYKNQFSLKLSSVTAADTAVYYCARDYDILTGYSYYYYGMDVWGQGTTVTVSS VL: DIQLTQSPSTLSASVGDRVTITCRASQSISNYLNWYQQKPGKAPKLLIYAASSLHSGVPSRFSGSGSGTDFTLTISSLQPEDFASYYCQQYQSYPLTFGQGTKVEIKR    0.68
3) LIBC527968-1 (antibody, V domains shown, also called LIBC527968-1 + VK1 germline fix(es)) VH: QVQLQESGPGLVKPSQTLSLTCTVSGGSIRRGGDYWSWIRQHPGKGLEWIGHIYQSGSTKYNPSFKDRATISVNTYKNQFSLKLSSVTAADTAVYYCARDYDILTGYSYYYYGMDVWGQGTTVTVSS VL: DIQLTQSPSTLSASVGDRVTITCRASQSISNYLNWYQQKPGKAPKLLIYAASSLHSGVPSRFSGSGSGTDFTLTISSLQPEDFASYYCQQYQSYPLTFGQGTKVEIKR    0.64

(Q) State the recorded 50.0 nM Empty Nanodisc binding (relative to 10D10N35Y) for this entry: LIBC527912-1 (antibody, V domains shown) VH: QVQLQESGPGLVKPSQTLSLTCTVSGGSIRRGGDYWSWIRQHPGKGLEWIGYIYQTGQTKYNPNFEGRATISVNTYKNQFSLKLSSVTAADTAVYYCARDYDILTGYSYYYYGMDVWGQGTTVTVSS VL: DIQLTQSPSSLSASVGDRVTITCRASQSISSYLNWYQQKPGKAPKLLIYAASSLRSGVPSRFSGSGSGTDFTLTISSLQPEDFATYYCQQYSNYPLTFGGGTRVEIKR
(A) 0.51

(Q) State the recorded 50.0 nM Empty Nanodisc binding (relative to 10D10N35Y) for this entry: LIBC527919-1 (antibody, IgG1, V domains shown) VH: QVQLQESGPGLVKPSQTLSLTCTVSGGSIRRGGDYWAWIRQHPGKGLEWIGHVYQTGSTAYNPNFKDRATISVNTYKNQFSLKLSSVTAADTAVYYCARNYDALSGYSYYYYGMDVWGQGTTVTVSS VL: DIQLTQSPSSLSASVGDRVTITCRASQSIISYLNWYQQKPGKAPKLLIYAASSLRSGVPSRFSGSGSGTDFTLTISSLQPEDFATYYCQQYSNYPLTFGGGTRVEIKR
(A) 0.64
